- target-under-test: T1, recombinant hIL1RAP Domain1+2+3 (aa21-367) (human, UniProt Q9NPH3 21-367)
- T1 construct: Numbering on Uniprot Q9NPH3
- T1 sequence (looked up): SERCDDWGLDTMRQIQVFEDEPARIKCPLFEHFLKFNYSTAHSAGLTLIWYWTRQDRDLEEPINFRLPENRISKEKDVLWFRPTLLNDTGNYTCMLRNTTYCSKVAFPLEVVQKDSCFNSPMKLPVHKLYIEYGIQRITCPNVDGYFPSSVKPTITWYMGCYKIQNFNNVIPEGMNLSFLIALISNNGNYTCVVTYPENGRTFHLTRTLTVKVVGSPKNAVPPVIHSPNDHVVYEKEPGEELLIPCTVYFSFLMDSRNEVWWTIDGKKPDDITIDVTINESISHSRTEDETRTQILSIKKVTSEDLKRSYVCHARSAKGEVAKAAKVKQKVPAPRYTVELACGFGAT
- procedure-summary: binding ELISA, coated recombinant hIL1RAP aa21-367
Give measured IC50 for each item. Keep answers brief.
Quick note: give the figure in mg/L, leave out the unit.

# IC50 of h48D2 VH4:VL5 (antibody, human IgG1, kappa, L234A L235A, V domains shown, Humanized; also called VL5:VH4) VH: QVQLQESGPGLVKPSETLSLTCTVSGPSLSHFDITWIRQPPGKGLEWIGTISPGVSTYYASWAKSRFTISVDTSKNQFSLKLTSVTAADTATYYCARGGVGSSWKAFDLWGPGTLVTVSS VL: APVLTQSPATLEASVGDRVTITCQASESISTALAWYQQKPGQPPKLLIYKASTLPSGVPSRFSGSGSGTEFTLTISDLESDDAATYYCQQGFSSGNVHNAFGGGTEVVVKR = 0.0258

# IC50 of h48D2 VH4:VL4 (antibody, human IgG1, kappa, L234A L235A, V domains shown, Humanized; also called VL4:VH4) VH: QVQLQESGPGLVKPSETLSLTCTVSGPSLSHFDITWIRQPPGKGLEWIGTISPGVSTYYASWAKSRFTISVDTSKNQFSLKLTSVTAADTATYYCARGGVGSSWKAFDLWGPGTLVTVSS VL: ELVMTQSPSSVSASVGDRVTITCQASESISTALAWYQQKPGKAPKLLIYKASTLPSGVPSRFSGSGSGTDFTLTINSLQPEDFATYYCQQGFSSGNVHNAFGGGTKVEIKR = 0.0243

# IC50 of h48D2 VH5:VL3 (antibody, human IgG1, kappa, L234A L235A, V domains shown, Humanized; also called VL3:VH5) VH: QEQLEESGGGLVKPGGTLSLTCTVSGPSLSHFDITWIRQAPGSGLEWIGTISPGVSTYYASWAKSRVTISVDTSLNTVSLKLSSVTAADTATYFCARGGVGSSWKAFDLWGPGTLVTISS VL: DILLTQTPSVVSASVGDRVTITCQASESISTALAWYQQKPGQAPRLLIYKASTLPSGVPSRFRGSGSGTDFTLTITSLQPEDFATYYCQQGFSSGNVHNAFGGGTRLEIKR = 0.0249

# IC50 of h48D2 VH5:VL2 (antibody, human IgG1, kappa, L234A L235A, V domains shown, Humanized; also called VL2:VH5) VH: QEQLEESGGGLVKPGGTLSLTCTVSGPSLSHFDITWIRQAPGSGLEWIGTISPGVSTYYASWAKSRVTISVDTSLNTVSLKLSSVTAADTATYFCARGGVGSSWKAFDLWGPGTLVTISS VL: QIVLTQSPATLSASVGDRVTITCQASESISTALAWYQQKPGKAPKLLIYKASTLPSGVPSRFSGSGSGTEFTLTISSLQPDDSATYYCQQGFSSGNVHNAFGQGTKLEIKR = 0.0231

# IC50 of h48D2 VH4:VL1 (antibody, human IgG1, kappa, L234A L235A, V domains shown, Humanized; also called VL1:VH4) VH: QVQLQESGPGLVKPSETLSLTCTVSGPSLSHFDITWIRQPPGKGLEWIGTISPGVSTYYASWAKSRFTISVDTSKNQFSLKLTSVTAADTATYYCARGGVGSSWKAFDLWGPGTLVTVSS VL: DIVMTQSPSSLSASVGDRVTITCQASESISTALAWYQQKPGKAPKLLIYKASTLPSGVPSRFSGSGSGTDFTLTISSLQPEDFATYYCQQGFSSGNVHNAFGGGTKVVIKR = 0.0308
